Entries and their pIC50 values follow.
- System under test: T1, human TIGIT expressed on CHO-K1 cells (human, UniProt Q495A1 22-244)
- T1 construct: whole, on cells; also called human TIGIT-CHO-K1 cells; human TIGIT over-expressing cell line
- T1 sequence (looked up): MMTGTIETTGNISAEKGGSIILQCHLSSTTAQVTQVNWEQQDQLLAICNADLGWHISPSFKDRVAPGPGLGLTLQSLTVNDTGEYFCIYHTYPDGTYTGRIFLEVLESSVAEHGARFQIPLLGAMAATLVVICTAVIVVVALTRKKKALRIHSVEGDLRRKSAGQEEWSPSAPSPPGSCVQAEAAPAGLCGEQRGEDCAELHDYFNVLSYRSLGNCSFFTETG
- Assay info: flow cytometry competition: biotinylated CD155-Fc on human TIGIT-CHO-K1 cells
pIC50: −log10 of the molar value.
Measured quantity: pIC50

Binder	Test value
TIGIT-18 chimeric antibody (antibody, human IgG1, kappa, V domains shown, Full-length chimeric IgG1 kappa) VH: QVQLQQPGAELVRPGASVKLSCKASGYSFTSYWMNWVKQRPGQGHEWIGMIHLSNSETRLNQNFLDKATLTVDKSSSTVYLQLSSPTSEDSAVYYCARERDYYGSSYFDYWGQGTTLTVSS VL: DIVMTQSPASLVVSLGQRATISCRTSQSVSTSSYSYMHWYQQKPGQPPKLLIKNASNLESGVPARFSASGSGTDFTLNIHPVEEEDAATYYCQHSWEIPRTFGGGTKLEIKR	8.91
TIGIT-15 chimeric antibody (antibody, human IgG1, kappa, V domains shown, Full-length chimeric IgG1 kappa) VH: DVQLVESGGGLVQPGGSLKLSCAASGFTFSSYGMSWVRQTPDRRLELVATINNNGGSTYYPDSVKGRFTISRDNARNTLYLQMSSLKSEDTAMYYCATRTGTEILGFDFWGQGTTLTVSS VL: DIVLTQSHKFMSTSLGDRVSITCKASQDVSTAVAWYQQKPGQSPKLLIYWASSRHTGVPDRFTGSRSGPDYTLTISSVQAEDLALYYCQQQYSTPWTFGGGTKLEIKR	8.97
TIGIT-87 chimeric antibody (antibody, human IgG1, kappa, V domains shown, Full-length chimeric IgG1 kappa) VH: EVKLVESGPELVKPGASMKISCKASGYSFTGYTMNWVKQSHGKNLEWIGLINPYNGGTSYNQKFKGKATLTVDKSSSTAYMELLSLTSEDSAVYYCARYANRFENWFAYWGQGTLVTVSS VL: DIQMTQSPASLSASVGETVTITCRASENIYSYLAWYQQKQGKSPQLLVYNAKTLAEGVPSRFSGSGSGTQFSLKINSLQPEDFGSYYCQHHYGTPWTFGGGTKLEIKR	9.28
TIGIT-63 chimeric antibody (antibody, human IgG1, kappa, V domains shown, Full-length chimeric IgG1 kappa) VH: DVQLVESGGGLVQPGGSLSLSCAASGFTFTDYYMNWVRQPPGKALEWLGFIRNKANGYTTEYSASVKGRFTISRDNSQSILYLQMNALRAEDSATYYCARSTAWYFDVWGTGTTLTVSS VL: DIQMTQSPASLSASVGGTVTITCRASEHIYSYLAWYQQKQGKSPQLLVYNAKTLAEGVPSRFSGSGSGTQFSLKINSLQPKDFGSYYCQHHYGNPLTFGAGTKLELKR	8.63
TIGIT-6 chimeric antibody (antibody, human IgG1, kappa, V domains shown, also called 6VH + 6VL) VH: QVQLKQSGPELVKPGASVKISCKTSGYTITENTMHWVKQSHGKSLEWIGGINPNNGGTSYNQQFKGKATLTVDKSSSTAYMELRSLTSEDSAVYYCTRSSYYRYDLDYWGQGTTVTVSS VL: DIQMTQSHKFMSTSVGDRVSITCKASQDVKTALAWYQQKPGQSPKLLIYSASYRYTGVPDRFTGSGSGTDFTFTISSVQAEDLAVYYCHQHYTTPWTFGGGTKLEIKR	9.24
